Assay: AUC and Cmax target safe levels of CYP3A4 substrate drugs (Table 1)
Conditions: human
MEASURED QUANTITY: AUC target safe level, Percent of baseline (%)

{"COMPOUND": "Cc1[nH]c2ccccc2c1CCNCc1ccc(/C=C/C(=O)NO)cc1 [panobinostat]", "MEAS VALUE": 173}
{"COMPOUND": "N#CC[C@H](C1CCCC1)n1cc(-c2ncnc3[nH]ccc23)cn1 [ruxolitinib]", "MEAS VALUE": 191}
{"COMPOUND": "CCc1nc(C(N)=O)c(Nc2ccc(N3CCC(N4CCN(C)CC4)CC3)c(OC)c2)nc1NC1CCOCC1 [gilteritinib]", "MEAS VALUE": 220}
{"COMPOUND": "CC(=O)OCC(=O)[C@@]12N=C(C)O[C@@H]1C[C@H]1[C@@H]3CCC4=CC(=O)C=C[C@]4(C)[C@H]3[C@@H](O)C[C@@]12C [deflazacort]", "MEAS VALUE": 300}
{"COMPOUND": "CN1CC[C@@H](NC(=O)Nc2ccc(C#N)cc2)C[C@@H]1c1nc2ccccc2[nH]1 [glasdegib]", "MEAS VALUE": 240}
